IC50: recorded values
# System Name: Leucine--tRNA ligase (Staphylococcus aureus (strain NCTC 8325), UniProt Q2FXH2)
# Sequence (Q2FXH2 whole entry): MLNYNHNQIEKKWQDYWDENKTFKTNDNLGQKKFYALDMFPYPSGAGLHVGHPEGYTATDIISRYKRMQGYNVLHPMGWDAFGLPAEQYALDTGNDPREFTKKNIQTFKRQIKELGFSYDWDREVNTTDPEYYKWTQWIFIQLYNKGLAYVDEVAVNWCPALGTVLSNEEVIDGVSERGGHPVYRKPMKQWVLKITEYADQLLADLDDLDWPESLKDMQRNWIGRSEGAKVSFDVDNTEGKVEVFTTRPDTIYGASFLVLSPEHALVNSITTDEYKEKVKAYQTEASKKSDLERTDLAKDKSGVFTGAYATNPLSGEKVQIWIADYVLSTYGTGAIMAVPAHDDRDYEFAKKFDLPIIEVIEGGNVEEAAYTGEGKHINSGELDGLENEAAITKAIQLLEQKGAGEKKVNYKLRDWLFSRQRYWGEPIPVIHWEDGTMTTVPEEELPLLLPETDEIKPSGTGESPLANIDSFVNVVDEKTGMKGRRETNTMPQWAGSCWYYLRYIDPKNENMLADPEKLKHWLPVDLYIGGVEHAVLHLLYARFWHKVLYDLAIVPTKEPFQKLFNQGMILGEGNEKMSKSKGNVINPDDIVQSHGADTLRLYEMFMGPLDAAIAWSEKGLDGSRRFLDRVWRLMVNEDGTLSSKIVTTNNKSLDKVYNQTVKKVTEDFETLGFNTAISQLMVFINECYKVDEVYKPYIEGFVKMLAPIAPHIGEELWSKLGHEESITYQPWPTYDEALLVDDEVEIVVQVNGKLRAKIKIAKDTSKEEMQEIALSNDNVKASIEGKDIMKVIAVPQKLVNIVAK
# Measurement Notes: Inhibition of Staphylococcus aureus LeuRS expressed in Escherichia coli M15 cells assessed as reduction in ATP consumption
Kindly provide the numeric value in µM only, without the unit symbol.

Field: example entries. Status: answers known.
Entry `CC(C)C[C@H](N)C(=O)NS(=O)(=O)c1cccc(-c2cccc(N)n2)c1` has what IC50?
1.7

Again, but for `CC(C)C[C@H](N)C(=O)NS(=O)(=O)c1cccc(-c2cc(-c3ccccc3)nc(N)n2)c1`
3.6

Continuing:
Entry `CC(C)C[C@H](N)C(=O)NS(=O)(=O)c1cccc(-c2ccnc(N)n2)c1` : reported IC50 = ?
9.2
